Listed below: YAP1 (% UTC) values for each entry.
- System: Yap1 mRNA
- Assay Protocol: Antisense inhibition of human Yap1 in A-431 cells by cEt gapmers, single dose (Example 3, RTS36584)
- Type: cell-based
- Condition Parameters: Table 35; Yap1 mRNA as percent of untreated control; 3-10-3 cEt gapmers targeting SEQ ID NO: 1 and 2; single dose
Strand notation (5' to 3'): a small letter for the sugar, then the base; units joined by * are phosphorothioate-linked, units joined directly phosphodiester-linked; [ ] holds rarer units or linkages, { } end groups; capitals alone tell only the bases. k = constrained ethyl (cEt); [5mC] = 5-methylcytosine; d = 2'-deoxy (DNA)
Measured Endpoint: YAP1 (% UTC)

>  <Substance>
1076117 (k[5mC]*kT*kA*dG*dA*dA*dA*dA*dT*dA*dG*d[5mC]*d[5mC]*k[5mC]*kA*kT; antisense) [compound 1076117]

>  <Measured Endpoint>
YAP1 (% UTC)

>  <Reported Result>
15

$$$$
>  <Substance>
1074261 (antisense k[5mC]*k[5mC]*kG*dA*dG*dT*dT*d[5mC]*dA*dT*d[5mC]*dA*dT*kA*kT*kT) [compound 1074261]

>  <Measured Endpoint>
YAP1 (% UTC)

>  <Reported Result>
19

$$$$
>  <Substance>
1075349 (antisense kA*kT*kT*dA*dA*dA*dG*d[5mC]*dT*d[5mC]*dA*dT*dT*kG*kA*kT) [compound 1075349]

>  <Measured Endpoint>
YAP1 (% UTC)

>  <Reported Result>
81

$$$$
>  <Substance>
1074165 (k[5mC]*k[5mC]*k[5mC]*dA*dG*dG*d[5mC]*dG*dA*dG*d[5mC]*dG*dA*kG*kG*kG; antisense) [compound 1074165]

>  <Measured Endpoint>
YAP1 (% UTC)

>  <Reported Result>
90

$$$$
>  <Substance>
1075829 (kA*k[5mC]*kT*d[5mC]*dA*dA*dT*dA*dG*dA*dT*d[5mC]*dA*kT*kT*kG; antisense) [compound 1075829]

>  <Measured Endpoint>
YAP1 (% UTC)

>  <Reported Result>
41

$$$$
>  <Substance>
1074549 (DNA kT*kA*kT*d[5mC]*dT*dA*d[5mC]*d[5mC]*dG*dT*dA*dT*dG*k[5mC]*k[5mC]*k[5mC]; antisense) [compound 1074549]

>  <Measured Endpoint>
YAP1 (% UTC)

>  <Reported Result>
6

$$$$
>  <Substance>
1074229 (antisense kG*kA*kA*dG*dA*d[5mC]*dT*dG*dT*d[5mC]*dG*dA*dA*kG*kA*kT) [compound 1074229]

>  <Measured Endpoint>
YAP1 (% UTC)

>  <Reported Result>
5

$$$$
>  <Substance>
1075669 (antisense kA*kA*kA*dT*dT*dA*dT*dT*dG*dG*dT*dG*dA*k[5mC]*kA*k[5mC]) [compound 1075669]

>  <Measured Endpoint>
YAP1 (% UTC)

>  <Reported Result>
70

$$$$
>  <Substance>
1075253 (kG*kT*kT*dA*dA*dT*dT*dA*d[5mC]*dG*dA*dT*dT*kA*kG*kA; antisense) [compound 1075253]

>  <Measured Endpoint>
YAP1 (% UTC)

>  <Reported Result>
20

$$$$
>  <Substance>
1075541 (kG*k[5mC]*kT*d[5mC]*dA*dA*dA*dA*d[5mC]*dT*dG*dA*d[5mC]*kA*kT*kA; antisense) [compound 1075541]

>  <Measured Endpoint>
YAP1 (% UTC)

>  <Reported Result>
47

$$$$
>  <Substance>
958499 (ATTAGAGTATGTGGCA; 3-10-3 cEt gapmer, further chemistry not given here) [compound 958499]

>  <Measured Endpoint>
YAP1 (% UTC)

>  <Reported Result>
2

$$$$
>  <Substance>
1074837 (kT*kA*kA*d[5mC]*dA*dA*d[5mC]*dA*dT*dG*d[5mC]*dT*dT*kG*k[5mC]*kG; antisense) [compound 1074837]

>  <Measured Endpoint>
YAP1 (% UTC)

>  <Reported Result>
11

$$$$
>  <Substance>
1075893 (antisense k[5mC]*kG*kT*dG*dA*dA*dA*dA*dA*dG*dA*dT*dG*kT*kG*kG) [compound 1075893]

>  <Measured Endpoint>
YAP1 (% UTC)

>  <Reported Result>
7

$$$$

Values compiled from patent US11214803B2.
